# PROTOCOL SUMMARY: Half life in human liver microsomes at 1 uM in presence of beta-NADPH measured for 60 mins by LC-MS/MS analysis
# Type: ADME, Microsome
Kindly state half-life at 1 µM for each of the entries shown.
One number for each entry, in min.

Cc1cc2c(C(N)=O)cccc2n1-c1nc2c(c(NCc3cccc(O)c3)n1)CCC2 37.1

// "Cc1cc2c(C(N)=O)cccc2n1-c1nc2c(c(NCc3ccccc3)n1)CCCN2" : half-life at 1 µM value = 35.9

====

# PROTOCOL SUMMARY: Intrinsic clearance in dog liver microsomes at 1 uM in presence of beta-NADPH measured for 60 mins by LC-MS/MS analysis
# Assay type: ADME, Canis lupus familiaris, Microsome
# CONDITION DESCRIPTION: read-out: CLH
MEASURED ENDPOINT: microsomal CLint at 1 µM (µL/min/mg)
One number for each entry, in µL/min/mg.

Cc1cc2c(C(N)=O)cccc2n1-c1nc2c(c(NCc3cccc(O)c3)n1)CCC2 39.8

Next up:
Record "Cc1cc2c(C(N)=O)cccc2n1-c1nc2c(c(NCc3ccccc3)n1)CCCN2" . Reported microsomal CLint at 1 µM: 60

====

For each record, write down the corresponding microsomal CLint at 1 µM.
# PROTOCOL SUMMARY: Intrinsic clearance in human liver microsomes at 1 uM in presence of beta-NADPH measured for 60 mins by LC-MS/MS analysis
# Format: ADME, Microsome
# CONDITION DESCRIPTION: read-out: CLH
Give bare numbers, in µL/min/mg.

Cc1cc2c(C(N)=O)cccc2n1-c1nc2c(c(NCc3cccc(O)c3)n1)CCC2 37.4

Lab note: next molecule to report on.
Looking up "Cc1cc2c(C(N)=O)cccc2n1-c1nc2c(c(NCc3ccccc3)n1)CCCN2" , I see its microsomal CLint at 1 µM listed as 36.5

====

# PROTOCOL SUMMARY: AUC (0 to t) in Sprague-Dawley rat at 1 mg/kg, iv measured for 24 hrs by LC-MS/MS analysis
# Format: ADME, organism-based
# Set-up: time 24 hrs, dose 1 mg/kg, route iv
# CONDITION DESCRIPTION: in vivo
I'd appreciate it if you could supply AUC(0-t) at 24 h values for the items below.
Give bare numbers, in ng·h/mL.

Some solved entries appear below for comparison.
Cc1cc2c(C(N)=O)cccc2n1-c1nc2c(c(NCc3cccc(O)c3)n1)CCC2 142
Cc1cc2c(C(N)=O)cccc2n1-c1nc2c(c(NCc3ccccc3)n1)CCCN2 390

AUC(0-t) at 24 h in this record for "CONC(=O)c1cccc2c1cc(C)n2-c1nc2c(c(NCc3cccc(O)c3)n1)CCC2" : 94.8

====

The listing below reports IC50 for molecules tested on Transitional endoplasmic reticulum ATPase (Homo sapiens).

Examples from the recorded data:
CCONC(=O)c1cccc2c1cc(C)n2-c1nc2c(c(NCc3cccc(B(O)O)c3)n1)CCC2 72 nM
C=CC(=O)Nc1cccc2c1cc(C)n2-c1nc2c(c(NCc3cccc(O)c3)n1)CCC2 26 nM
Cc1cc2c(C(=N)N)cccc2n1-c1nc2c(c(NCc3cccc(O)c3)n1)CCC2 233 nM
Cc1cc2c(NC(=O)c3ccco3)cccc2n1-c1nc2c(c(NCc3cccc(O)c3)n1)CCC2 49 nM

Value of IC50 reported for the molecule "Cc1cc2c(C(N)=O)cccc2n1-c1nc2c(c(NCc3ccccc3)n1)CCCN2" is 44 nM

====

# PROTOCOL SUMMARY: MRT in Sprague-Dawley rat at 1 mg/kg, iv measured for 24 hrs by LC-MS/MS analysis
# Format: ADME, organism-based
# CONDITION DESCRIPTION: in vivo
MEASURED ENDPOINT: MRT (h)
Give bare numbers, in h.

Check out these entries, answers already filled in.
CONC(=O)c1cccc2c1cc(C)n2-c1nc2c(c(NCc3cccc(O)c3)n1)CCC2 1.23
Cc1cc2c(C(N)=O)cccc2n1-c1nc2c(c(NCc3cccc(O)c3)n1)CCC2 1.12

// next item, MRT requested
MRT recorded for this molecule, "Cc1cc2c(C(N)=O)cccc2n1-c1nc2c(c(NCc3ccccc3)n1)CCCN2" , is 0.42

====

# PROTOCOL SUMMARY: Elimination half life in Sprague-Dawley rat at 10 mg/kg, po measured for 30 hrs by LC-MS/MS analysis
# Format: ADME, organism-based
# CONDITION DESCRIPTION: in vivo, read-out: beta t1/2 (converted)
MEASURED ENDPOINT: half-life (h)
Give bare numbers, in h.

Solved cases (2 shown):
Cc1cc2c(C(N)=O)cccc2n1-c1nc2c(c(NCc3ccccc3)n1)CCCN2 1.23
CONC(=O)c1cccc2c1cc(C)n2-c1nc2c(c(NCc3cccc(O)c3)n1)CCC2 2.55

In the following, a different compound is considered.
Reported half-life for "Cc1cc2c(C(N)=O)cccc2n1-c1nc2c(c(NCc3cccc(O)c3)n1)CCC2" was 3.8

====

I'd appreciate it if you could supply AUC(0-inf) values for the items below.
# PROTOCOL SUMMARY: AUC (0 to infinity) in Sprague-Dawley rat at 1 mg/kg, iv by LC-MS/MS analysis
# Type: ADME, organism-based
# Design: time infinity, dose 1 mg/kg, route iv
# CONDITION DESCRIPTION: in vivo
Numbers only, in ng·h/mL.

A selection of reference data follows.
CONC(=O)c1cccc2c1cc(C)n2-c1nc2c(c(NCc3cccc(O)c3)n1)CCC2 108
Cc1cc2c(C(N)=O)cccc2n1-c1nc2c(c(NCc3cccc(O)c3)n1)CCC2 147

As a next step, examine the compound that follows.
The compound "Cc1cc2c(C(N)=O)cccc2n1-c1nc2c(c(NCc3ccccc3)n1)CCCN2" showed AUC(0-inf) equal to 398

====

# PROTOCOL SUMMARY: Half life in dog liver microsomes at 1 uM in presence of beta-NADPH measured for 60 mins by LC-MS/MS analysis
# Type: ADME, Canis lupus familiaris, Microsome
Kindly state half-life at 1 µM for each of the entries shown.
Numbers only, in min.

Cc1cc2c(C(N)=O)cccc2n1-c1nc2c(c(NCc3cccc(O)c3)n1)CCC2 34.8

Please turn your attention to the following entry.
Sure, the documented half-life at 1 µM for "Cc1cc2c(C(N)=O)cccc2n1-c1nc2c(c(NCc3ccccc3)n1)CCCN2" is 33

====

# PROTOCOL SUMMARY: Intrinsic clearance in mouse liver microsomes at 1 uM in presence of beta-NADPH measured for 60 mins by LC-MS/MS analysis
# Type: ADME, Microsome
# CONDITION DESCRIPTION: read-out: CLH
MEASURED ENDPOINT: microsomal CLint at 1 µM (µL/min/mg)
Give bare numbers, in µL/min/mg.

Cc1cc2c(C(N)=O)cccc2n1-c1nc2c(c(NCc3cccc(O)c3)n1)CCC2 48.2

Query molecule follows.
Summary for this molecule, "Cc1cc2c(C(N)=O)cccc2n1-c1nc2c(c(NCc3ccccc3)n1)CCCN2" : microsomal CLint at 1 µM is 176

====

Please go through the items and note down their AUC(0-t) at 30 h.
# PROTOCOL SUMMARY: AUC (0 to t) in Sprague-Dawley rat at 10 mg/kg, po measured for 30 hrs by LC-MS/MS analysis
# Type: ADME, organism-based
# Design: dose 10 mg/kg, time 30 hrs, route po
# CONDITION DESCRIPTION: in vivo
One number for each entry, in ng·h/mL.

Guide cases for AUC(0-t) at 30 h, answers given:
Cc1cc2c(C(N)=O)cccc2n1-c1nc2c(c(NCc3cccc(O)c3)n1)CCC2 283
CONC(=O)c1cccc2c1cc(C)n2-c1nc2c(c(NCc3cccc(O)c3)n1)CCC2 108

The record that follows has no AUC(0-t) at 30 h shown yet.
Value of AUC(0-t) at 30 h reported for the compound "Cc1cc2c(C(N)=O)cccc2n1-c1nc2c(c(NCc3ccccc3)n1)CCCN2" is 779

====

# PROTOCOL SUMMARY: Half life in mouse liver microsomes at 1 uM in presence of beta-NADPH measured for 60 mins by LC-MS/MS analysis
# Assay type: ADME, Microsome
MEASURED ENDPOINT: half-life at 1 µM (min)
Answers are plain numbers, in min.

Cc1cc2c(C(N)=O)cccc2n1-c1nc2c(c(NCc3cccc(O)c3)n1)CCC2 28.8

Shift focus to the following entry.
The recorded half-life at 1 µM for "Cc1cc2c(C(N)=O)cccc2n1-c1nc2c(c(NCc3ccccc3)n1)CCCN2" is 19.1

====

List of IC50 tested on Transitional endoplasmic reticulum ATPase (Homo sapiens, UniProt P55072).
Sequence (P55072 whole entry): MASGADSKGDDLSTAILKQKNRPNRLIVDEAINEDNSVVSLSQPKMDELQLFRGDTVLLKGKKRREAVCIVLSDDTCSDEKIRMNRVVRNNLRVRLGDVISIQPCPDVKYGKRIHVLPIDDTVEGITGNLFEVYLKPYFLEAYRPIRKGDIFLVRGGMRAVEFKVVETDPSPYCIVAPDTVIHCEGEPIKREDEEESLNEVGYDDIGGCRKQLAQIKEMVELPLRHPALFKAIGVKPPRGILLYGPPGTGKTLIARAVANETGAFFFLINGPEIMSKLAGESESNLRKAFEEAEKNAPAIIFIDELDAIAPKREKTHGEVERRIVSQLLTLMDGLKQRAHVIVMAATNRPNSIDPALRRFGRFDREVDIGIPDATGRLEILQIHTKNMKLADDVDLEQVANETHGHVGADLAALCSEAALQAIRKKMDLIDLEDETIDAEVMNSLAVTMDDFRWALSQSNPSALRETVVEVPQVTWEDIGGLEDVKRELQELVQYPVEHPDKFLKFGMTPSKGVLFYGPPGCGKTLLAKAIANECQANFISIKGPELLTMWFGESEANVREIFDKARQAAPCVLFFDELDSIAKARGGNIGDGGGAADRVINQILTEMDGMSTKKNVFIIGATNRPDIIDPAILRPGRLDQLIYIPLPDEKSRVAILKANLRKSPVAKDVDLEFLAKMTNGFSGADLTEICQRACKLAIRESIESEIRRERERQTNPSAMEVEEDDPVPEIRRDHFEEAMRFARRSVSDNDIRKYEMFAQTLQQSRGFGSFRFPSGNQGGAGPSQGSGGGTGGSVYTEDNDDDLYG
Numbers only, in nM.

See these solved cases before continuing.
CCONC(=O)c1cccc2c1cc(C)n2-c1nc2c(c(NCc3cccc(O)c3)n1)CCC2 31
Cc1cc2c(NC(=O)/C=C/c3ccccc3)cccc2n1-c1nc2c(c(NCc3cccc(O)c3)n1)CCC2 3510
Cc1cc2c(NC(=O)c3cscn3)cccc2n1-c1nc2c(c(NCc3cccc(O)c3)n1)CCC2 216

Continue with the compound presented below.
IC50 reading for "Cc1cc2c(NS(C)(=O)=O)cccc2n1-c1nc2c(c(NCc3cccc(O)c3)n1)CCC2" : 97
